Target: T1, hNPR1-ANP complex (human, UniProt P01160 124-151, limits assumed)
T1 construct: hNPR1 antigen in the presence of ANP; also called hNPR1 + 100 nM ANP
T1 sequence: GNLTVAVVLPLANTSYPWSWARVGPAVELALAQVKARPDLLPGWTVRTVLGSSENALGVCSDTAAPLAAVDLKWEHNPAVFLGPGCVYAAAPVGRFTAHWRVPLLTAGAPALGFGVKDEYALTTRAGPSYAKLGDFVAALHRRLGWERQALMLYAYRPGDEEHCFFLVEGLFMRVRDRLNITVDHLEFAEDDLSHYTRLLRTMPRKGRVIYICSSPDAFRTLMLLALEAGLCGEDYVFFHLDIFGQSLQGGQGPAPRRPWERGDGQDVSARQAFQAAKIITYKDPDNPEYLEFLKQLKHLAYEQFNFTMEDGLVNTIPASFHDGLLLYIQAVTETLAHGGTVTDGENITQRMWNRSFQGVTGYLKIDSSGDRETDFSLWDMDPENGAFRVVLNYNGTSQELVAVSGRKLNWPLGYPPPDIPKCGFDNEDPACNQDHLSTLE
T1 sequence (peptide): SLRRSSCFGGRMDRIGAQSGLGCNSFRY
Assay: FabCys affinity (Octet per Table 18 comment)
Quantity measured: Kd (nM)
All answers are understood in nM, so give the number only.

Binder: YY05 (FabCys format) (Fab, V domains shown, Monovalent FabCys) VH: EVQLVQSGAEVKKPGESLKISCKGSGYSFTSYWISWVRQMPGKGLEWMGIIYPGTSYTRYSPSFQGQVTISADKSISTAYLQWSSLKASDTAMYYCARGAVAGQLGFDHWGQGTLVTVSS VL: QSVLTQPPSVSGAPGQRVTISCTGSSSNIGAGYDVHWYQQLPGTAPKLLIYGNSNRPSGVPDRFSGSKSGTSASLAITGLQAEDEADYYCQSYYTSSHGPVFGGGTKLTVL
Data value: 350
--
Binder: YY06 (FabCys format) (Fab, V domains shown, Monovalent FabCys) VH: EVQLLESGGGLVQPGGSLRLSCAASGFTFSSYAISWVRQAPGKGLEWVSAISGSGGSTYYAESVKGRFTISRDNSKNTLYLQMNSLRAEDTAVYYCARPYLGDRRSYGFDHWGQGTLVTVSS VL: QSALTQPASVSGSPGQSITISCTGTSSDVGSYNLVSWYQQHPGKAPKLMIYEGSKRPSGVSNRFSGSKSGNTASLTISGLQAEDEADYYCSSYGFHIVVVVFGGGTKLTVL
Data value: 1
--
Binder: YY04 (FabCys format) (Fab, V domains shown, Monovalent FabCys) VH: EVQLVESGGGLVKPGGSLRLSCAASGFTFSNYWISWVRQAPGKGLEWVGRIKSKTYGGTTDYAEPVKGRFTISRDDSKNTLYLQMNSLKTEDTAVYYCAREKYSIRARGHGDYGFDVWGQGTLVTVSS VL: DIQMTQSPSSLSASVGDRVTITCRASQGISNYLAWYQQKPGKVPKLLIYAASTLQSGVPSRFSGSGSGTDFTLTISSLQPEDVATYYCQQGYHAPFTFGQGTKVEIK
Data value: 1.1

Now examine the next entry.
QUERY: Returns the measured Kd for the input binder. Input: YY01 (FabCys format) (Fab, V domains shown, Monovalent FabCys) VH: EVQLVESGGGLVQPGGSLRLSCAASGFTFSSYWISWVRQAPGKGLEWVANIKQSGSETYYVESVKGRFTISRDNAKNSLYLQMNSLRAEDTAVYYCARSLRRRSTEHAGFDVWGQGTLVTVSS VL: DIQMTQSPSSLSASVGDRVTITCRASQGISNYLAWYQQKPGKVPKLLIYAASTLQSGVPSRFSGSGSGTDFTLTISSLQPEDVATYYCQQADKFPYTFGQGTKVEIK
RESULT: 16
